Kd values for the sequences below.
target: HLA-A*01:01; experiment: IEDB peptide-MHC binding, purified MHC/direct/fluorescence; filed as Kd, often an IC50 or EC50 that approximates it; bounds were set here for any values at or beyond the usual limits of such assays; settings: source organism: West Nile virus
measured-metric: Kd

>>> measurement("HSRRSRRSL")
"≥ 20 µM"
>>> measurement("FTRYRKEAI")
"≥ 20 µM"

---

molecular target: HLA-A*03:01; experiment: IEDB peptide-MHC binding, purified MHC/direct/fluorescence; filed as Kd, often an IC50 or EC50 that approximates it; bounds were set here for any values at or beyond the usual limits of such assays; settings: source organism: Camelpox virus M-96
measured-metric: Kd (nM)

>>> measurement("KVFDKSLLY")
35

---

biological target: HLA-A*02:12; experiment: IEDB peptide-MHC binding, purified MHC/competitive/fluorescence; filed as Kd, often an IC50 or EC50 that approximates it; bounds were set here for any values at or beyond the usual limits of such assays; conditions: source organism: Rickettsia akari str. Hartford
measured-metric: Kd

>>> measurement("FTARIIIFS")
"≥ 20 µM"

---

molecular target: HLA-B*57:01; test: IEDB peptide-MHC binding, purified MHC/competitive/fluorescence; filed as Kd, often an IC50 or EC50 that approximates it; bounds were set here for any values at or beyond the usual limits of such assays; conditions: source organism: Plesiomonas shigelloides
measured-metric: Kd

>>> measurement("LLFRMILNY")
"≥ 20 µM"

---

target: HLA-A*29:02; assay: IEDB peptide-MHC binding, purified MHC/direct/fluorescence; filed as Kd, often an IC50 or EC50 that approximates it; bounds were set here for any values at or beyond the usual limits of such assays; details: source organism: Escherichia coli O157:H7 str. EC869
pKd: −log10 of the molar value.
measured-metric: pKd

>>> measurement("ESMMGSTAM")
"≤ 4.70"

---

target: HLA-B*51:01; test: IEDB peptide-MHC binding, purified MHC/direct/fluorescence; filed as Kd, often an IC50 or EC50 that approximates it; bounds were set here for any values at or beyond the usual limits of such assays; conditions: source organism: Giardia lamblia ATCC 50803
measured-metric: Kd (nM)

>>> measurement("MPSSYAAGM")
863

---

// reported pKd for each item listed
molecular target: HLA-A*01:01; assay: IEDB peptide-MHC binding, purified MHC/competitive/radioactivity; filed as Kd, often an IC50 or EC50 that approximates it; bounds were set here for any values at or beyond the usual limits of such assays; settings: source organism: Mammarenavirus juninense
pKd: −log10 of the molar value.
measured-metric: pKd

>>> measurement("SVIGTFVAEF")
5.45
>>> measurement("SGKDTPGGY")
4.87

---

target: HLA-B*15:17; assay: IEDB peptide-MHC binding, purified MHC/direct/fluorescence; filed as Kd, often an IC50 or EC50 that approximates it; bounds were set here for any values at or beyond the usual limits of such assays; conditions: source organism: Mycobacterium tuberculosis
measured-metric: Kd

>>> measurement("VPRENATAF")
"≥ 20 µM"

---

molecular target: HLA-C*06:02; assay: IEDB peptide-MHC binding, purified MHC/direct/fluorescence; filed as Kd, often an IC50 or EC50 that approximates it; bounds were set here for any values at or beyond the usual limits of such assays; conditions: source organism: West Nile virus
measured-metric: Kd (µM)

>>> measurement("RRSRRSLTV")
0.036

---

target: HLA-A*29:02; assay: IEDB peptide-MHC binding, purified MHC/direct/fluorescence; filed as Kd, often an IC50 or EC50 that approximates it; bounds were set here for any values at or beyond the usual limits of such assays; conditions: source organism: Giardia lamblia ATCC 50803
measured-metric: Kd

>>> measurement("MTYLDGHPV")
"6 nM"

---

biological target: HLA-B*15:42; test: IEDB peptide-MHC binding, purified MHC/competitive/fluorescence; filed as Kd, often an IC50 or EC50 that approximates it; bounds were set here for any values at or beyond the usual limits of such assays; details: source organism: Burkholderia mallei SAVP1
measured-metric: Kd

>>> measurement("MALATGLWW")
"≥ 5 µM"

---

The entries below are paired with their reported pKd.
biological target: HLA-A*02:19; test: IEDB peptide-MHC binding, purified MHC/direct/fluorescence; filed as Kd, often an IC50 or EC50 that approximates it; bounds were set here for any values at or beyond the usual limits of such assays; conditions: source organism: Choclo virus
pKd: −log10 of the molar value.
measured-metric: pKd

>>> measurement("FSLPSSSSY")
"≤ 4.70"
>>> measurement("HTVGLGQGY")
"≤ 4.70"

---

biological target: HLA-B*15:17; assay: IEDB peptide-MHC binding, purified MHC/direct/fluorescence; filed as Kd, often an IC50 or EC50 that approximates it; bounds were set here for any values at or beyond the usual limits of such assays; settings: source organism: Salmonella enterica subsp. enterica serovar Typhimurium str. LT2
pKd: −log10 of the molar value.
measured-metric: pKd

>>> measurement("FKYDSTKPL")
"≤ 4.70"

---

target: HLA-A*02:01; experiment: IEDB peptide-MHC binding, purified MHC/direct/fluorescence; filed as Kd, often an IC50 or EC50 that approximates it; bounds were set here for any values at or beyond the usual limits of such assays; conditions: source organism: Salmonella enterica
measured-metric: Kd

>>> measurement("EHFYWGSVF")
"≥ 20 µM"

---

biological target: HLA-A*02:01; assay: IEDB peptide-MHC binding, purified MHC/direct/fluorescence; filed as Kd, often an IC50 or EC50 that approximates it; bounds were set here for any values at or beyond the usual limits of such assays; settings: source organism: Orthohantavirus puumalaense
measured-metric: Kd (nM)

>>> measurement("FMFNELLAL")
0.2

---

Overview of recorded pKd for various sequences
target: HLA-A*26:01; assay: IEDB peptide-MHC binding, purified MHC/competitive/radioactivity; filed as Kd, often an IC50 or EC50 that approximates it; bounds were set here for any values at or beyond the usual limits of such assays; settings: source organism: Triticum aestivum
pKd: −log10 of the molar value.
measured-metric: pKd

>>> measurement("QYSQPQQPI")
"≤ 4.11"
>>> measurement("QFEEIRNLAL")
"≤ 4.16"

---

biological target: HLA-B*44:02; assay: IEDB peptide-MHC binding, purified MHC/competitive/radioactivity; filed as Kd, often an IC50 or EC50 that approximates it; bounds were set here for any values at or beyond the usual limits of such assays; settings: source organism: Dengue virus 1 Singapore/S275/1990
pKd: −log10 of the molar value.
measured-metric: pKd

>>> measurement("TDFQSHQLW")
7.43

---

target: HLA-C*04:01; test: IEDB peptide-MHC binding, purified MHC/direct/fluorescence; filed as Kd, often an IC50 or EC50 that approximates it; bounds were set here for any values at or beyond the usual limits of such assays; conditions: source organism: Homo sapiens
pKd: −log10 of the molar value.
measured-metric: pKd

>>> measurement("KYFIPVIEI")
"≤ 4.70"

---

target: HLA-B*18:01; test: IEDB peptide-MHC binding, purified MHC/direct/fluorescence; filed as Kd, often an IC50 or EC50 that approximates it; bounds were set here for any values at or beyond the usual limits of such assays; conditions: source organism: Camelpox virus M-96
measured-metric: Kd (nM)

>>> measurement("TESDAIRTL")
17

---

target: HLA-B*40:01; test: IEDB peptide-MHC binding, purified MHC/direct/fluorescence; filed as Kd, often an IC50 or EC50 that approximates it; bounds were set here for any values at or beyond the usual limits of such assays; settings: source organism: Giardia lamblia ATCC 50803
pKd: −log10 of the molar value.
measured-metric: pKd

>>> measurement("MIYELCTFR")
"≤ 4.70"
>>> measurement("YQYGDNLIL")
7.11
>>> measurement("YTDDYPMYK")
"≤ 4.70"
>>> measurement("VYAYPSGEK")
"≤ 4.70"

---

target: HLA-B*15:09; assay: IEDB peptide-MHC binding, purified MHC/direct/fluorescence; filed as Kd, often an IC50 or EC50 that approximates it; bounds were set here for any values at or beyond the usual limits of such assays; settings: source organism: Francisella tularensis subsp. tularensis FSC033
measured-metric: Kd

>>> measurement("EFKQILTDF")
"≥ 20 µM"

---

biological target: HLA-A*26:01; test: IEDB peptide-MHC binding, purified MHC/competitive/radioactivity; filed as Kd, often an IC50 or EC50 that approximates it; bounds were set here for any values at or beyond the usual limits of such assays; conditions: source organism: Dengue virus 1 Brazil/97-11/1997
Could you mark each record Met if its Kd falls strictly under 7000 nM, and Not met if it equals or exceeds it?

>>> assigned_category("LTFIKTTLSL")
"Not met"
>>> assigned_category("ATLLAVSGVY")
"Met"
>>> assigned_category("DTIETLMLL")
"Met"
>>> assigned_category("NTYKRSGIM")
"Met"
>>> assigned_category("ETEPPFGESY")
"Met"
